tested on: HOP-62; experiment: NCI tumour cell line growth inhibition, 48 h
The source made the active and inactive calls. No stated cut-off is given here; in the data, active = GI50 up to about 1.1 µM and inactive = higher.
I'd be grateful if you could share measured GI50 for these entries.

Output measured GI50 for this item: Oc1cccc(-c2cc(O)c3cc4c(cc3n2)OCO4)c1
1.6 µM (inactive)

Output measured GI50 for this item: Clc1ccc(NCc2nnc(CCCCCCCCc3nnc(CNc4ccc(Cl)cc4)o3)o2)cc1
> 100 µM (inactive)

Output measured GI50 for this item: CCCCCCCCCCCC(=O)C1=C(O)CC(O)CC1=O (stereo unspecified)
> 100 µM (inactive)

Output measured GI50 for this item: Clc1ccc(C(OCn2ccnc2)c2nc3ccccc3[nH]2)c(Cl)c1 (stereo unspecified)
92.9 µM (inactive)

Output measured GI50 for this item: O=C(c1nc2ccccc2nc1O)C(O)c1ccccc1 (stereo unspecified)
> 100 µM (inactive)

Output measured GI50 for this item: CCOC(=O)/C=C(/C)Nc1nc2c(c(C(=O)OC)c1C#N)CCCC2
> 100 µM (inactive)

Output measured GI50 for this item: Cc1ccc(/C=C/C(=O)c2sc(-c3nc(C)c(C(=O)/C=C/c4ccc(C)cc4)s3)nc2C)cc1
> 100 µM (inactive)

Output measured GI50 for this item: Cc1ccccc1CN1CC=c2ccccc2=N1
> 100 µM (inactive)

Output measured GI50 for this item: CC(=O)c1c2c(cc3c1CC1(Cc4cc5c(cc4C1)CCC5)C3)CCC2
> 100 µM (inactive)

Output measured GI50 for this item: N#CI1OC(=O)c2ccccc21
> 100 µM (inactive)

Output measured GI50 for this item: N#Cc1ccccc1-c1nc2c3c(c(N)ccc3n1)C(=O)c1ccccc1-2
18.1 µM (inactive)

###

test system: M19-MEL; assay: NCI tumour cell line growth inhibition, 48 h
Active and inactive are the calls of the source. Cut-off read from the data, not from the text of the source: active = GI50 up to about 1.1 µM and inactive = higher.
measure: GI50

Output measured GI50 for this item: NNC(=O)CCC(=O)Nc1cc(Cl)c(Cl)cc1Cl
> 100 µM (inactive)

Output measured GI50 for this item: O=C(CC(=O)C1CCOC1=O)C(=O)Nc1ccc(Cl)cc1Cl (centres undefined)
> 100 µM (inactive)

Output measured GI50 for this item: CCOP12(OCC)NC(=O)OC1(C(F)(F)F)c1ccccc1O2 (centres undefined)
> 100 µM (inactive)

Output measured GI50 for this item: NC(=O)N/N=C1/CCCC/C1=C\c1ccccc1
> 100 µM (inactive)

Output measured GI50 for this item: O=c1[nH]c(=O)n(C2CC(O)C(CO)O2)cc1/C=C/Br (centres undefined)
> 100 µM (inactive)

Output measured GI50 for this item: Fc1ccccc1C1SCc2nc3ccccc3n21 (centres undefined)
51.9 µM (inactive)

Output measured GI50 for this item: COc1ccc2c3c1C(=O)CCCC3CO2 (centres undefined)
> 100 µM (inactive)

Output measured GI50 for this item: O=C(c1c(O)cc(O)cc1O)C1Cc2ccccc21 (centres undefined)
> 100 µM (inactive)

Output measured GI50 for this item: NC(=O)CCC(NC(=O)Cc1ccccc1)C(=O)O (centres undefined)
> 2470 µM (inactive)

Output measured GI50 for this item: N#C/C(=C\c1ccccc1)C(NO)Nc1ccccc1 (centres undefined)
> 100 µM (inactive)

Output measured GI50 for this item: CCCCOC(=O)CNC(=O)OCCCCC#CC#CCCCCOC(=O)NCC(=O)OCCCC
> 100 µM (inactive)

Output measured GI50 for this item: CCOC(=O)C1C(=S)NC(=O)C1C#N (centres undefined)
> 100 µM (inactive)

Output measured GI50 for this item: COc1ccccc1/C=C1\CCC(CCN2CCOCC2)C1=O (centres undefined)
> 100 µM (inactive)

Output measured GI50 for this item: Cc1cc(C)nc(NS(=O)(=O)c2ccc(Nc3c4ccccc4nc4c(C(=O)Nc5ccc(S(=O)(=O)N=C(N)N)cc5)ccc(Cl)c34)cc2)n1
26 µM (inactive)

Output measured GI50 for this item: CN(CCO)c1nc(N)cc(=O)[nH]1
> 100 µM (inactive)

Output measured GI50 for this item: CC1=NN(C(=O)c2ccc(Cl)cc2)C(=O)/C1=C/c1ccco1
> 100 µM (inactive)

Output measured GI50 for this item: CN(C)C(CN)CC1=C(CC(CN)N(C)C)CCC1 (centres undefined)
> 100 µM (inactive)

Output measured GI50 for this item: O=C1C=CC(=CC=C2C=CN(CCCCCCCCCCC(=O)NCCCCCCCCCCCC(=O)O)C=C2)C=C1
> 100 µM (inactive)

Output measured GI50 for this item: C/C(CCc1ccccc1)=N\NC(N)=S
74.8 µM (inactive)

Output measured GI50 for this item: O=C(c1nc2ccccc2nc1O)C(O)c1ccccc1 (centres undefined)
90.8 µM (inactive)

Output measured GI50 for this item: Cc1ccc(NC(=O)C2C(=O)C(=O)N(c3ccc(C)cc3)C2=O)cc1 (centres undefined)
> 100 µM (inactive)

Output measured GI50 for this item: O=c1cc2ccccc2nn1Cc1cccc(Cl)c1
> 100 µM (inactive)

Output measured GI50 for this item: COc1cc2c(cc1OC)C(Cc1c3ccccc3cc3ccccc13)N(C)CC2 (centres undefined)
21.3 µM (inactive)

Output measured GI50 for this item: O=C1c2ccccc2C(=O)C12CCc1ccccc12
> 100 µM (inactive)
